Let's look at some compounds and their measured pIC50.
molecular target: IgE-Tb binding to soluble IgE receptor FcεR1α (Y131A mutation) (Homo sapiens, UniProt P01854, N146Q/N252Q); experiment: In vitro FRET assay: inhibition of binding of IgE-Tb to receptor FcεR1α-Y131A-AF488; details: read-out: FRET IC50 range
Sequence (P01854 whole entry N146Q/N252Q, looked up): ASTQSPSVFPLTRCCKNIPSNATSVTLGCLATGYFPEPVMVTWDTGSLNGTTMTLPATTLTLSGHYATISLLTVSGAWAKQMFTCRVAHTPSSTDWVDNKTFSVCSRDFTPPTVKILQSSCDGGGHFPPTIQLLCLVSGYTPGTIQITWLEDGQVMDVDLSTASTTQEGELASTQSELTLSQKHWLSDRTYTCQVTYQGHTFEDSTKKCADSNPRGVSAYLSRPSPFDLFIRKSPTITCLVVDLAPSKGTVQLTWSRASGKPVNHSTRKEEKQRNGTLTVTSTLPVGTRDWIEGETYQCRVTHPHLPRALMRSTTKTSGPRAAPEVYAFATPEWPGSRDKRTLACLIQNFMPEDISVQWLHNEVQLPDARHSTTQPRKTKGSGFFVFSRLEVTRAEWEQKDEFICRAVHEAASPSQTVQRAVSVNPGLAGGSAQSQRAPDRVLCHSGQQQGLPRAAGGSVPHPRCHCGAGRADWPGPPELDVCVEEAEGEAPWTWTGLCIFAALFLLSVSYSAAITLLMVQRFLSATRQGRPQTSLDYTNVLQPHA
pIC50: −log10 of the molar value.

# compound, pIC50
data = [
    ("CC(C)CNS(=O)(=O)c1cc2c(c3cnc(C4CC4)cc13)C(NC(=O)Nc1ccc(Br)cc1)CC2 (stereo not shown) [Example 45]", "5.70 to 7.00"),
    ("CC(C)(F)CNS(=O)(=O)c1cc2c(c3cnc(C4CC4)cc13)CCC2n1nccc1NC(=O)C1CC1 (stereo not shown) [Example 38]", "5.70 to 7.00"),
    ("CC(C)CNS(=O)(=O)c1cc2c(c3cnc(C4CC4)cc13)CCC2O (stereo not shown) [Example 47]", "5.70 to 7.00"),
    ("Cn1nnc(-c2ccc(NC3CCc4c3cc(S(=O)(=O)NCC(C)(C)F)c3cc(C5CC5)ncc43)cn2)n1 (stereo not shown) [Example 40]", "8.00 to 9.00"),
]
